Assay: PQQ-SR bioavailability pilot human uptake study
Format: in vivo
Settings: human; free plasma PQQ, 40 mg PQQ oral, two healthy subjects
observationType: Tmax
Include the unit after the number when you answer.

Ask: Would you mind telling me what Tmax value was observed for O=C(O)c1cc(C(=O)O)c2c(n1)C(=O)C(=O)c1cc(C(=O)O)[nH]c1-2 [control PQQ powder, Pyrroloquinoline quinone] ?
Result: 2 h
